- targetEntity: human ACC2 (Homo sapiens)
- Construct: made in house; host or cells: insect cells (baculoviral expression system)
- Sequence (O00763 129-2458 limits assumed): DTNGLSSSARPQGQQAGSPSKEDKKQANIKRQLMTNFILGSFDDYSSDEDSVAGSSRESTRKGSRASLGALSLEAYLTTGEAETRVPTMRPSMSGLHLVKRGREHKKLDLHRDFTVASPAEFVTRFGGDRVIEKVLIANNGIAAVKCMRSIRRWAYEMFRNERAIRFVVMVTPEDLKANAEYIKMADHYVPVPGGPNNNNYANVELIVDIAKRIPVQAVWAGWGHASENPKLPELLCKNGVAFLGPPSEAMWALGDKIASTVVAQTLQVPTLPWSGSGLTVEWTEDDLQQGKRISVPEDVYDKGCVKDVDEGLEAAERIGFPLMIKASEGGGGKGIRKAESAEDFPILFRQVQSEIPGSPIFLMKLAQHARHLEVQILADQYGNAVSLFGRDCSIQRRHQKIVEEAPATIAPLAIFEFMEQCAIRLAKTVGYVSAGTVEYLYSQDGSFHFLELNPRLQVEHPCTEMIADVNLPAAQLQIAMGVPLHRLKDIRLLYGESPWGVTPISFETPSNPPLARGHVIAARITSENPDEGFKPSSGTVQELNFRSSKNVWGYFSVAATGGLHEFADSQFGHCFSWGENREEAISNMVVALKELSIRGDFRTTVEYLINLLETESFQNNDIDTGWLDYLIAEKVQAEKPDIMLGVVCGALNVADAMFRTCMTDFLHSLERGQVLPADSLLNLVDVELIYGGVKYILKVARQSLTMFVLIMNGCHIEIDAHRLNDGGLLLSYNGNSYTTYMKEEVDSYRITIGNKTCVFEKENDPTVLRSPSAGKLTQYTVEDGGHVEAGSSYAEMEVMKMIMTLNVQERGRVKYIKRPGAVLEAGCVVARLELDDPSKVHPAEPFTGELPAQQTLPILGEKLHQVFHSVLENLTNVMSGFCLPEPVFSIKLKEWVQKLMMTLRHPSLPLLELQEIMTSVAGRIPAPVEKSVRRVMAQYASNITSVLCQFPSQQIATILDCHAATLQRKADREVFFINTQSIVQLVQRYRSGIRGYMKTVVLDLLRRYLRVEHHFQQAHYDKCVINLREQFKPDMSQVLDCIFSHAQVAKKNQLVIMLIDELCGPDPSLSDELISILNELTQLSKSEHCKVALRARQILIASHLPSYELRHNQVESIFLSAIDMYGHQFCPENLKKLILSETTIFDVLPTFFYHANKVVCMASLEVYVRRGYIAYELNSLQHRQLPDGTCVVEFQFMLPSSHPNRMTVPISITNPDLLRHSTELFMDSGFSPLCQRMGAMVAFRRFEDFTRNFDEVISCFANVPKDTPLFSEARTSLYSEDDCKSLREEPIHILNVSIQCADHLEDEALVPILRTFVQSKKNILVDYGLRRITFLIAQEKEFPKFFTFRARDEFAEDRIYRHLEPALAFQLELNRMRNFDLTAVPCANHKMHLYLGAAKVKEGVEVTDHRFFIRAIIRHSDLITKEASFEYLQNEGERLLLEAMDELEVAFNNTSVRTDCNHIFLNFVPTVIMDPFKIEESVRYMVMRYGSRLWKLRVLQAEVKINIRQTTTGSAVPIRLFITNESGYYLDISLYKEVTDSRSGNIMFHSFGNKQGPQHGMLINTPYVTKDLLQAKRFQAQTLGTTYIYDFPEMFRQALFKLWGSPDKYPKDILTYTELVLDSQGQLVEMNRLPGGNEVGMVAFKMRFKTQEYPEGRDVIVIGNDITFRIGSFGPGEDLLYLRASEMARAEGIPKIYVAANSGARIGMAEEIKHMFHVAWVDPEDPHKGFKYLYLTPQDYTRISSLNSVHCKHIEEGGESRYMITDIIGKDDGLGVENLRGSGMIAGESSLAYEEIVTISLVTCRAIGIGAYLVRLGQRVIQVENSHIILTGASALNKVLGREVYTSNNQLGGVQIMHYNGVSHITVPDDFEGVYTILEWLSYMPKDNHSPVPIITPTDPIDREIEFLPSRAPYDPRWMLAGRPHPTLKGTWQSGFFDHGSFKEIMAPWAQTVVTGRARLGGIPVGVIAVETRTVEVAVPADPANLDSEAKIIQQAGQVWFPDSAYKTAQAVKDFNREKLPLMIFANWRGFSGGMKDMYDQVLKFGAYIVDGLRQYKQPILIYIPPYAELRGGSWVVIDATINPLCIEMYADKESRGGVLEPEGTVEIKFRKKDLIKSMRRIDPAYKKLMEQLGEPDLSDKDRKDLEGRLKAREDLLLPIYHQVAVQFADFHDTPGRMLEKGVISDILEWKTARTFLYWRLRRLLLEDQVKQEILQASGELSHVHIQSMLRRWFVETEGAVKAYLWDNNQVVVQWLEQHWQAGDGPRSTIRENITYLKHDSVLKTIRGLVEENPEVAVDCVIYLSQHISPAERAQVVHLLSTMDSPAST
- testMethodNotes: ACC2 assay, spectrophotometric 384 well assay (NADH-linked, coupled lactate dehydrogenase/pyruvate kinase)
- Assay type: biochemical
- experimentalContext: ACC2 assay, hACC2 construct lacking 128 N-terminal amino acids, 25° C., 340 nm; read-out: IC50
Values of IC50 strictly less than 500 nM map to satisfied, and values of at least 500 nM map to not satisfied.

Ask: Given CC(=O)N[C@@H](C)c1ccc(C2CCN(c3nccc(-c4ccccc4)n3)CC2)cc1 [Example 4.21] , is recorded IC50 strictly lower than 500 nM?
Reply: not satisfied

Ask: Given CC(=O)N[C@@H](C)c1ccc(C2CCN(c3cccc(OCC4CCC4)c3)CC2)cc1 [Example 9.12] , is recorded IC50 strictly lower than 500 nM?
Reply: satisfied

Ask: Given CCc1nc(N2CCC(c3ccc([C@H](C)NC(C)=O)cc3)CC2)no1 [Example 26.2] , is recorded IC50 strictly lower than 500 nM?
Reply: not satisfied

Ask: Given CC(=O)N[C@@H](C)c1ccc(C2CCN(c3cc(N(C)CC4CC4)ncn3)CC2)cc1 [Example 11.91] , is recorded IC50 strictly lower than 500 nM?
Reply: satisfied

Ask: Given C[C@H](NC(=O)N(C)C)c1ccc(C2CCN(c3ccc(OC4CCC4)cc3)CC2)cc1 [Example 1.21] , is recorded IC50 strictly lower than 500 nM?
Reply: satisfied

Ask: Given COc1cc(OCC2CC2)ccc1N1CCC(c2ccc([C@H](C)NC(C)=O)cc2)CC1 [Example 1.36] , is recorded IC50 strictly lower than 500 nM?
Reply: satisfied

Ask: Given CC(=O)N[C@@H](C)c1ccc(C2CCN(c3ncccc3C)CC2)cc1 [Example 5.49] , is recorded IC50 strictly lower than 500 nM?
Reply: not satisfied

Ask: Given CC(=O)N[C@@H](C)c1ccc(C2CCN(c3ncc(-c4ccc5c(c4)OCO5)cn3)CC2)cc1 [Example 10.87] , is recorded IC50 strictly lower than 500 nM?
Reply: satisfied
